assay: qHTS assay for measurement of the activity of small molecule inhibitors on Zika virus induced Caspase-3 activity in human iPSC derived neural progenitor cells (hNPCs) (AID 1224857); conditions: hNPCs ZIKV-induced caspase-3/7, Caspase-Glo luminescence, 6 h; series mostly up to 45.7 µM; further: nearly all actives have a fitted effect of over 65% in size
Records with an inconclusive call do not appear. Calls of active or inactive are those of the source. The call rests on the fitted dose curve; in most records, active means well fitted inhibition curve with a large enough effect; inconclusive means small, poorly fitted or top-dose-only effect; inactive means no such curve, though single readings can be large or run the other way.
Mark one answer only. Choices: yes (1) for active, no (0) for inactive

Lookup: What did this assay record as the result for COc1ccc(-c2ccc(N)[n+](CCCC(=O)O)n2)cc1 ?
Found: no (0)

Lookup: Record request — test call for C=CCNc1ncnc2ccc(Br)cc12
Found: no (0)

Lookup: Hey, what did the test say about Nc1ccc(-c2ccc3ccccc3n2)cc1 ?
Found: yes (1)

Lookup: Please state the recorded outcome for this molecule: COC(=O)C1=C(C)NC(C)=C([N+](=O)[O-])C1c1ccccc1C(F)(F)F (stereo unspecified)
Found: no (0)

Lookup: Could you kindly confirm the outcome this assay logged for Cc1nc(N=Nc2ccc(C(=O)O)cc2)c(COP(=O)(O)O)c(C=O)c1O ?
Found: no (0)

Lookup: Hello, I am checking results. What call was entered for N=S(=O)(O)Cc1noc2ccccc12 ?
Found: no (0)

# credit: PubChem BioAssay (NCATS)
